Taken from patent US8058475B2.

For each of the molecules below, state its Ki.
target: human μ-opiate receptor (Homo sapiens, UniProt P35372); experiment: Affinity for the human μ-opiate receptor ([3H]-naloxone displacement, SPA, CHO-K1 membrane preparation); assay type: binding; details: read-out: μ-Opioid receptor, Ki
Sequence (P35372 whole entry): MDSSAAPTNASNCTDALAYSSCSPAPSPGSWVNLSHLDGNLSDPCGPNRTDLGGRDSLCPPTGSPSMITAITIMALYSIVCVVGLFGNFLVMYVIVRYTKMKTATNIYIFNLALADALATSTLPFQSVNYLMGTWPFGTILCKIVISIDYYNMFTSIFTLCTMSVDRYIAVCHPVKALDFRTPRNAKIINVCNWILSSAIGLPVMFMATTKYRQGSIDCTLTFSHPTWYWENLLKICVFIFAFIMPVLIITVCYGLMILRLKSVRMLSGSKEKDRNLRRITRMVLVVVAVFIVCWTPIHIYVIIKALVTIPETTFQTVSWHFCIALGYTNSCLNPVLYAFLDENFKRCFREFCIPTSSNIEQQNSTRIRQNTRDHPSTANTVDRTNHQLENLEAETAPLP
Where a name gives a salt, the structure may show the parent alone.
Only the number, expressed in nM, is required.

Qu. Value lookup for Ki; key = CN(C)C(c1ccc(F)cc1)C1CCC(CNC(=O)CC(C)(C)C)CC1 (centres unmarked) [compound 322]
Ans. 31

Qu. Value lookup for Ki; key = CN(C)C(c1ccc(F)cc1)C1CCC(CCNC(=O)c2ccccc2F)CC1 (centres unmarked) [compound 427]
Ans. 40

Qu. Value lookup for Ki; key = COc1c(C(=O)NC2CCC(C(c3ccccc3)N(C)C)CC2)csc1Cl (centres unmarked) [compound 188]
Ans. 5.2

Qu. Value lookup for Ki; key = CN(C)C(c1cccs1)C1CCC(CNC(=O)CC(C)(C)C)CC1 (centres unmarked) [compound 301]
Ans. 2.7

Qu. Value lookup for Ki; key = CN(C)C(c1cccc(F)c1)C1CCC(NC(=O)c2csc(-c3ccccc3)n2)CC1 (centres unmarked) [compound 264]
Ans. 110

Qu. Value lookup for Ki; key = CN(C)C(c1cccs1)C1CCC(CCNC(=O)c2ccccc2F)CC1 (centres unmarked) [compound 428]
Ans. 5.4

Qu. Value lookup for Ki; key = CN(C)C(c1ccc(Cl)cc1)C1CCC(CNC(=O)c2csc3ccccc23)CC1 (single isomer, unassigned) [compound 336]
Ans. 39

Qu. Value lookup for Ki; key = CN(C)C(c1ccccc1)C1CCC(NCCCc2ccccc2)CC1 (centres unmarked) [compound 85, dihydrochloride]
Ans. 2.8
